Molecular target: T1, human CCL17 (human, UniProt Q92583 24-94)
T1 construct: Biotinylated in the Fab ELISAs; also called huCCL17; Bt-huCCL17
T1 sequence: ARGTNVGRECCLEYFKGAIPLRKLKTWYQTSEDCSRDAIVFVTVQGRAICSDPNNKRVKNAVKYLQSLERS
Assay: solution equilibrium affinity (MSD-SEA), TBST, 48 h at 4 °C
observable: pKd
# pKd = -log10(concentration in molar units)

>  <binder>
C17B244 (antibody, V domains shown, Full IgG1, kappa) VH: EVQLVQSGAEVKKPGESLKISCKGSGYSFTSYWIGWVRQMPGKGLEWMGIIDPSDSDTRYSPSFQGQVTISADKSISTAYLQWSSLKASDTAMYYCARVGPADVWDSFDYWGQGTLVTVSS VL: DIVMTQSPDSLAVSLGERATINCKSSQSVLSSITNVNDLAWYQQKPGQPPKLLIYTASTRESGVPDRFSGSGSGTDFTLTISSLQAEDVAVYYCQQYYHDPFTFGQGTKVEIK

>  <pKd>
10.48

$$$$

Just so you know, measured pKd for C17B242 (antibody, V domains shown, Full IgG1, kappa) VH: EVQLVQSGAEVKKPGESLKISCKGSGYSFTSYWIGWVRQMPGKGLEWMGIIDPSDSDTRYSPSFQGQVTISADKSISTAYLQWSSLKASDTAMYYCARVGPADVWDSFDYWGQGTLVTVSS VL: DIVMTQSPDSLAVSLGERATINCKSSQSVLFSHDNLNTLAWYQQKPGQPPKLLIYHASTRESGVPDRFSGSGSGTDFTLTISSLQAEDVAVYYCQQYYAVPQTFGQGTKVEIK came out at 9.78

pKd measured on C17B239 (antibody, V domains shown, Full IgG1, kappa) VH: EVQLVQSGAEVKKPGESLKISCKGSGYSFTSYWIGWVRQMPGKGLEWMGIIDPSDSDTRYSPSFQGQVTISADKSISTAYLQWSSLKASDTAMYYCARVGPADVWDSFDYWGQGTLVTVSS VL: DIVMTQSPDSLAVSLGERATINCKSSQSVLSSFTNTNTLAWYQQKPGQPPKLLIYHASTRESGVPDRFSGSGSGTDFTLTISSLQAEDVAVYYCQQYLIYPSTFGQGTKVEIK = 10.04
